assay: yeast display, Sf9 membrane polyspecificity reagent, FACS + sequencing; frameworks hold sequencing errors
VALUE TYPE: polyreactivity (PSR sort gate)

Exercise: Reported polyreactivity (PSR sort gate), sequence QVQLVESGAGLVQAGGSLRLCCAASGRIFDWYVMGWYRQAPGKEWELVAAINSGVSTKYADSVKGRFTISRDNAKNTVYLQMNSLKPEDTAVYYCAAQSFSDYRRTGRKSSYYYWGQVTQVTVSS : ____
Key: low polyreactivity

Exercise: Reported polyreactivity (PSR sort gate), sequence QVQLVESGGGLVQAGVSLRISCAASGFIFYYYAMGWYRQAPGKERELVAAISWSGGSTYYADSVKGRFTISRDNAKNTVYLQLNSLKPEDTSVYYCNARFRYARYSQRYDYWGQGTQVTVSS : ____
Key: high polyreactivity

Exercise: Reported polyreactivity (PSR sort gate), sequence QVQLVESGGGLVQAGGSLRLSCAASGITFYSYAMGWYRQAPGKERELVAAISSSGTTYYADSVKGRFTISRDNAKNTVYLQMNSLKPEDTAVYYCAVDSYYKYDYWGQGTQVTVSS : ____
Key: low polyreactivity

Exercise: Reported polyreactivity (PSR sort gate), sequence QVQLVESGGGLVQAGGSLRISCAASGIIFALYAMGWYRQAPGKERELVAAISWSGDRTYYADSVKGRFTISRDNAKNTVYLQMNSLKPEDTAVYYCAADDYTADAVQRFYYWGQGTQVTVSS : ____
Key: low polyreactivity

Exercise: Reported polyreactivity (PSR sort gate), sequence QVQLVESGGGLVQAGGRLRLSCAASGRTFGTYAKGWSRQATGKERELVAAIRSNAGSTYYADSVKGRFTISRDNAKITVYLQMNSLKPEDTAVYYCAKSYRSSRRYNYWGQGTQVNVSS : ____
Key: high polyreactivity

---
Exercise: Reported polyreactivity (PSR sort gate), sequence QVQLVESGGGLVQAGGSLRLSCAASGGIFTLYVRGWYRQAPGKERELVAAISRTGGSTYYADSVKGRFTISRDNAKNTVYLQMNSLKPEDTAVYFCAALYRGGTRYGGYDYWGQGTQVTVSS : ____
Key: low polyreactivity

Exercise: Reported polyreactivity (PSR sort gate), sequence QVQLVESGGGLVQAGGSLRLSCAASGSTFYVNSMGWYRQAPGKERELVAGISFSDGSTYYADSVKGRFTISRDNAKNTVYLQMNSLKPEDTAVYYCATVGALDIYYGYGYWVQGTQVTVSS : ____
Key: low polyreactivity

Exercise: Reported polyreactivity (PSR sort gate), sequence QDQLVESGGGLVQAGGSLRLSCAASGLIFYEYAMGWYRQAPGKERELVAAISRGGRTYYADSVKGRFTISRDNAKNTVYLQMNSLKPEDTAVYYCADRHWPEKYDYWGQGTHVTVSS : ____
Key: high polyreactivity

Exercise: Reported polyreactivity (PSR sort gate), sequence QVQLVESGGGLVQAGGSLRLSCAASGRTFWRYAMGWDRQAPGKERELVAGITNSGGNTYYADSVKGRFTISRDNAKNTVYLQMNSLKPEDTAVYYCAARSGRFKYSSWSRGPTYDYWGQGTQVTVSS : ____
Key: low polyreactivity

Exercise: Reported polyreactivity (PSR sort gate), sequence QVQLVESGRGLVQAGGSLRLSCASSGRIFTYTAMGWYRQAPWKDSELVARITSGGNTNYADSVKGRFTISRDNAKNTVYLPMNSLKPEDTAVYYSATGLYWFTNRYGCWGLGTQVTVSS : ____
Key: low polyreactivity

Exercise: Reported polyreactivity (PSR sort gate), sequence QVQLVESGGGLVQAGGSLRLSCAASGFIFRYYALGWYRQAPGKERELVAAISWRGGTTYYADSVKGRFTISRDNAKNTVYLQMQSLKPEDTAVYYCAADWQWDLGPYIYQVEYWGQGTLVTVSS : ____
Key: high polyreactivity

Exercise: Reported polyreactivity (PSR sort gate), sequence QVQLEESGGGLVQAGGSIRLSCAASGSTLVGNAMGWYRQAPGKERELVATIDLSDDITYYADSVKGRFTSSRDNAKNTFYLQMNSLKPEDTAVYYCSAEYYLYSTYTVSYGKYDYWGQGTQGTVSS : ____
Key: high polyreactivity

Exercise: Reported polyreactivity (PSR sort gate), sequence QVQLVESGGGLVQAGGSLRLSCAASGIIFWVNAMGWYRQAPGKERELVAAIRSDGSTKYADSVKGRFTISRDNAKNTVYLQMNSLKPEDTALYYCAKRDYSYPWFRDYYYWGQGTQVTVSS : ____
Key: low polyreactivity

Exercise: Reported polyreactivity (PSR sort gate), sequence QVQLVESGGGLVQAGGSLRLSCAASGSTLVFYAMGWYRQAPGKERELVAAIDSDGGTYYADSVKGRFTISRDNAKNTVYLQMNSLKPEDTAVYYCNAAGALIFGEGYYVEYDYDYWGQGTQVTVSS : ____
Key: low polyreactivity

Exercise: Reported polyreactivity (PSR sort gate), sequence QVQLVESGGGLVQAGGSLRLSCAASGRTFAIYVMGWYRQAPGKERELVAAISRSGGNTYYADSVKGRFTISRDNAKNTVYLQMNSLKPEDTAVYYCAARVRERYYWGQGTQVTVSS : ____
Key: high polyreactivity
